A collection of molecules and their measured GI50
assay: Growth inhibition of mouse L929 cells; type: cell-based
Please report the result as a number followed by the unit.

Take a look at these entries with their results.
{"line_notation": "COC(=O)[C@]1(C)CCC[C@@]2(C)C3=CC[C@H]4C[C@]3(CC[C@H]12)C[C@]4(O)CO", "GI50": "41.9 µg/mL"}
{"line_notation": "COC(=O)[C@]1(C)CCC[C@@]2(C)[C@@H]3CC[C@H]4C[C@]3(CC[C@@H]21)C[C@]4(O)CO", "GI50": "39.5 µg/mL"}
{"line_notation": "C[C@@]12CCC[C@@](C)(C=O)[C@H]1CC[C@@]13C[C@@H](CC[C@H]12)[C@@](O)(CO)C3", "GI50": "50 µg/mL"}
{"line_notation": "C[C@@]1(CO)CCC[C@]2(C)[C@@H]1CC[C@@]13C[C@H](CO)[C@@H](CC[C@H]12)C3", "GI50": "12.8 µg/mL"}
{"line_notation": "CC(=O)O[C@H]1C(=O)[C@@]2(C)[C@H]([C@H](OC(=O)c3ccccc3)[C@]3(O)C[C@H](OC(=O)[C@H](O)[C@@H](NC(=O)c4ccccc4)c4ccccc4)C(C)=C1C3(C)C)[C@]1(OC(C)=O)CO[C@@H]1C[C@@H]2O", "GI50": "0.1 µg/mL"}

Please examine the following record next.
GET /value?item= C=C1C[C@]23CC[C@@H]4[C@](C)(CO)CCC[C@@]4(C)[C@@H]2CC[C@@]1(O)C3 &field=GI50 returns 50 µg/mL

* * *

experiment: Growth inhibition of mouse L929 cells; format: cell-based
Criterion: GI50 strictly under 20 µg/mL. Met: yes (1). Not met: no (0).

Take a look at these entries with their results.
{"line_notation": "C[C@@]12CCC[C@@](C)(C=O)[C@H]1CC[C@]13C[C@](O)(CC[C@H]12)[C@](O)(CCl)C3", "group": "no (0)"}
{"line_notation": "C[C@@]12CCC[C@@](C)(C=O)[C@H]1CC[C@@]13CC(=O)[C@](CO)(CC[C@H]12)C3", "group": "no (0)"}
{"line_notation": "C=C1C[C@]23CC[C@H]4[C@@](C)(CCC[C@@]4(C)C=O)[C@@H]2CC[C@@]1(O)C3", "group": "yes (1)"}
{"line_notation": "C=C1C[C@@]23CC[C@@H]4[C@](C)(CO)CCC[C@@]4(C)[C@@H]2CC[C@H]1C3", "group": "yes (1)"}

--- query ---
GI50 under 20 µg/mL? Item: C[C@@]12CCC[C@@](C)(C(=O)O)[C@H]1CC[C@@]13C[C@H](CO)[C@@H](CC[C@H]12)C3 no (0)
